Assay: PK study in rats (oral)
Format: in vivo
Details: Sprague-Dawley, rat, plasma; Female SD, 1 mg/kg oral
READOUT_NAME: half-life

Exercise: Look up and state reported half-life for CNC(=O)c1ccc2ccn(C3CCN(CCc4c(OC)ccc5c4OC(C)(C)CC5=O)CC3)c2c1.O=C(O)/C=C/C(=O)O [E2110]
Key: 156 min

---

Molecular target: UniProt:P19327
Sequence (P19327 1-422): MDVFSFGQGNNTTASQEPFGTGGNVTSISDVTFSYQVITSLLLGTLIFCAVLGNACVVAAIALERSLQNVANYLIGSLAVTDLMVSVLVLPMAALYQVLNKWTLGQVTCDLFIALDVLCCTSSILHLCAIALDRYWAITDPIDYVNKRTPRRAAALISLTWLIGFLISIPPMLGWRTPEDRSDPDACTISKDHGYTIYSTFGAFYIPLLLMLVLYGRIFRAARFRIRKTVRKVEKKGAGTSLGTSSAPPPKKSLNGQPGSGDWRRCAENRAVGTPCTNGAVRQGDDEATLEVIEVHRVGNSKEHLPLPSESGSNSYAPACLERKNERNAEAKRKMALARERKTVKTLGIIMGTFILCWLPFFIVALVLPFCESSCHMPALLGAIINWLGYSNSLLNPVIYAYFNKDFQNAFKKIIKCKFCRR
READOUT_NAME: Kd (nM)
Give the quantity in nM, number only.

Exercise: Look up and state reported Kd for COc1ccccc1N1CCN(CCN(C(=O)c2ccc(F)cc2)c2ccccn2)CC1 [[^3H] MPPF, reference compound]
Key: 0.92

Reference source for all entries: paper PMC3781034
